Molecular target: SzeaOBP1 (Sitophilus zeamais, UniProt A0A4P9CZ78)
Sequence (A0A4P9CZ78 entry or part of it): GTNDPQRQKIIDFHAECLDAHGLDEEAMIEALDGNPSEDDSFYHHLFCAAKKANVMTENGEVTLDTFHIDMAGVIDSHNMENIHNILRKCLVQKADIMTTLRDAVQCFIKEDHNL
Experiment: Fluorescence competitive binding assay (1-NPN probe) with recombinant SzeaOBP1
Settings: displacement of 1-NPN, protein and 1-NPN 2 μM, Tris-HCl pH 7.4; read-out: IC50 SzeaOBP1
quantity.measured: IC50 (µM)

Reference set (6 entries):
- compound: "CCC(C)C=O (stereo not drawn)"
  quantity.measured: "IC50"
  numeric.readout: 4.92
- compound: "CCCCCCCCC=O"
  quantity.measured: "IC50"
  numeric.readout: 5.18
- compound: "CC(C)CC=O"
  quantity.measured: "IC50"
  numeric.readout: 7.62
- compound: "Cc1occc(=O)c1O [Maltol (3-hydroxy-2-methyl-4-pyrone)]"
  quantity.measured: "IC50"
  numeric.readout: 6.18
- compound: "CCCCCCCCCCCCCCCC(=O)O"
  quantity.measured: "IC50"
  numeric.readout: 28.3
- compound: "CCCCCCCC=O"
  quantity.measured: "IC50"
  numeric.readout: 3.77

a: CCCCCCO
b: CCCCCCCCCO
c: C=CC(=C)CCC=C(C)C [Myrcene (stabilized with BHT)]
d: CCCCCCCCCCCCCCCCO
Exercise: Could you please sort these 4 entries by IC50 from high to low? Reply with the item labels sorted in the order that was asked for.
Key: c, b, a, d
(c: 35.5 µM, b: 8.13 µM, a: 5.47 µM, d: 3.22 µM)
